All values here come from PubChem BioAssay (EPA / NIEHS).

experimental.protocol: BSK_BE3C_SRB: Viability Assessment in the BioMAP Diversity Plus: BE3C Assay (AID 2283028);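 further: measured 24 h after chemical dosing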
conditions: primary human bronchial epithelial cells
The source made the active and inactive calls. How the source made its calls: active means hit-call score of the fitted dose curve at least 0.9, where 1 is the maximum; inactive means score below 0.9.
Pick one and only one: active, inactive

- CC(Oc1ccc(Cl)cc1Cl)C(=O)O (stereo not drawn): inactive
- CNC(=S)S: inactive
- N#CC(CCc1ccc(Cl)cc1)(Cn1cncn1)c1ccccc1 (stereo not drawn): active
- C#CCOS(=O)OC1CCCCC1Oc1ccc(C(C)(C)C)cc1 (stereo not drawn): active
- Fc1ccc(Oc2ccnc3cc(Cl)cc(Cl)c23)cc1: active
- CCCC1COC(Cn2cncn2)(c2ccc(Cl)cc2Cl)O1 (stereo not drawn): inactive
- CC(C)C1(C)N=C(c2nc3ccccc3cc2C(=O)O)NC1=O (stereo not drawn): inactive
- CNC(=O)ON=CC(C)(C)SC: inactive
- CON(C)C(=O)Nc1ccc(Cl)c(Cl)c1: inactive
- CCCCNC(=O)n1c(NC(=O)OC)nc2ccccc21: inactive

query: Tell me the recorded outcome of this test for `O=C(O)c1nc(Cl)ccc1Cl` .
result: inactive

query: GET /call?item= `C=CCC1=C(C)[C@@H](OC(=O)[C@@H]2[C@@H](C=C(C)C)C2(C)C)CC1=O` returns the recorded outcome of this test.
result: active

query: What call does the record list for `CCc1nn(C)c(C(=O)NCc2ccc(C(C)(C)C)cc2)c1Cl` ?
result: active

====

Tested on: rat CYP2B1, gene 24300
experimental.protocol: NVS_ADME_rCYP2B1: NovaScreen (NVS) CYP450-related Enzyme Activity (ADME) Assay for rat CYP2B1 (AID 2283117)
Activity calls are given as the source filed them. The calls were made as follows: active = hit-call score of the fitted dose curve at least 0.9, where 1 is the maximum; inconclusive = response in the unintended direction; inactive = score below 0.9.
Write down the outcome that applies. Available outcomes: True = active, False = inactive

query: Please share the test call associated with CCOC(=O)CC(SP(=S)(OC)OC)C(=O)OCC (stereo unspecified) .
result: True

query: Recorded test call requested for OC(c1ccc(Cl)cc1)(c1cncnc1)c1ccccc1Cl (stereo unspecified)
result: True

query: // param item: `CCNc1nc(Cl)nc(NC(C)C)n1` ; yields the recorded call
result: False

====

Tested on: chicken Androgen Receptor (AR), gene 422165
experimental.protocol: ATG_chAR_XSP1: Attagene TRANS-FACTORIAL Multi-Species (XSP1) HepG2 Assay for chicken Androgen Receptor (AR) (AID 2283768)
Records with an inconclusive call do not appear. Activity calls are given as the source filed them. The calls were made as follows: active = hit-call score of the fitted dose curve at least 0.9, where 1 is the maximum; inconclusive = response in the unintended direction; inactive = score below 0.9.
Hello, when you answer, please use one of the following outcomes: active, inactive

Example results:
* CC(C)(C)c1ccc(CSc2cnn(C(C)(C)C)c(=O)c2Cl)cc1 | inactive
* CCCCOC(=O)c1ccccc1C(=O)OCCCC | inactive

query: Hey, what did the test say about `CO/C=C(/C(=O)OC)c1ccccc1Oc1cc(Oc2ccccc2C#N)ncn1` ?
result: inactive

query: Field: outcome | Entry: `CC(C)Oc1cc(-n2nc(C(C)(C)C)oc2=O)c(Cl)cc1Cl`
result: active

query: Hello, I am checking results. What call was entered for `COP(=S)(OC)Oc1nc(Cl)c(Cl)cc1Cl` ?
result: active

====

target.system: human CYP2B6, CYP2B6 (gene 1555) (UniProt P20813)
Sequence (P20813 whole entry, looked up): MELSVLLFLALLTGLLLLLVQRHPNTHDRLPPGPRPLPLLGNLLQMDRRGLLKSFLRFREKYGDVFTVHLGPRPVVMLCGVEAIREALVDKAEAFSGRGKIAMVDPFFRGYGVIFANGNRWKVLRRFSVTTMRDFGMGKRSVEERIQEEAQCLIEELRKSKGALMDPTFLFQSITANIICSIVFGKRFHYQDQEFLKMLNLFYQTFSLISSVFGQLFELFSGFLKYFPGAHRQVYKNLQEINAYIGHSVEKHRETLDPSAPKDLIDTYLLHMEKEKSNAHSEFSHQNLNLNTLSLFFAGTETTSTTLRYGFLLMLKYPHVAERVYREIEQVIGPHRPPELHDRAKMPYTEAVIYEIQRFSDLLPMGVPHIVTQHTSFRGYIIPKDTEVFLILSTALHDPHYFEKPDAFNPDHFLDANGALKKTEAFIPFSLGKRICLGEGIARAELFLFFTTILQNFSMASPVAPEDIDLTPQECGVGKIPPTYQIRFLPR
experimental.protocol: NVS_ADME_hCYP2B6: NovaScreen (NVS) CYP450-related Enzyme Activity (ADME) Assay for human CYP2B6 (AID 2283101)
Inconclusive results are not listed. The source made the active and inactive calls. How the source made its calls: active means hit-call score of the fitted dose curve at least 0.9, where 1 is the maximum; inconclusive means response in the unintended direction; inactive means score below 0.9.
Thanks in advance; please answer with one of these: 1 (active), 0 (inactive)

These solved cases illustrate the format of a correct answer.
- CCCN(CCC)c1c([N+](=O)[O-])cc(S(N)(=O)=O)cc1[N+](=O)[O-]: 0
- CCCC1COC(Cn2cncn2)(c2ccc(Cl)cc2Cl)O1 (stereo not given): 1
- CC1COC(Cn2cncn2)(c2ccc(Oc3ccc(Cl)cc3)cc2Cl)O1 (stereo not given): 1
- N#CC(CCc1ccc(Cl)cc1)(Cn1cncn1)c1ccccc1 (stereo not given): 1

For the next question, use this compound.
query: Dear colleague, could you share the recorded outcome for `CCOP(=S)(OCC)SCn1c(=O)oc2cc(Cl)ccc21` when you have a moment?
result: 1

====

Read-out: ABC Transporter (ABCB11), ABCB11 (gene 8647)
experimental.protocol: LTEA_HepaRG_ABCB11: Life Technologies and Expression Analysis (LTEA) Assay for ABC Transporter (ABCB11) using HepaRG (AID 2283463)
conditions: mRNA level, 48 h; actives raise or lower the signal
Active and inactive are the calls of the source. Rule for the calls: active = hit-call score of the fitted dose curve at least 0.9, where 1 is the maximum; inactive = score below 0.9.
Entry note: the call must match one of 1.0 for active, 0.0 for inactive

Answered cases to consult:
* N#Cc1nn(-c2c(Cl)cc(C(F)(F)F)cc2Cl)c(N)c1S(=O)C(F)(F)F (configuration not stated) | 1.0
* C=CC1(C)OC(=O)N(c2cc(Cl)cc(Cl)c2)C1=O (configuration not stated) | 1.0
* O=C(O)c1nc(Cl)ccc1Cl | 0.0
* CC(C)Oc1cc(-n2nc(C(C)(C)C)oc2=O)c(Cl)cc1Cl | 1.0

query: Write down the call the test reported for this molecule. Item: `CNC(=S)S`
result: 0.0

query: What outcome does the record of this test show for `CCNc1nc(Cl)nc(NCC)n1` ?
result: 0.0

query: Recorded call for `CON(C)C(=O)Nc1ccc(Cl)c(Cl)c1` ?
result: 1.0

====

experimental.protocol: CCTE_Shafer_MEA_dev_per_burst_interspike_interval: CCTE's Neural Network Formation Assay for Burst Interspike Interval, Shafer Lab (AID 2284044);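 further: mean spike spacing inside bursts as AUC over recordings on days 5 7 9 12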
The source made the active and inactive calls. How the source made its calls: active means hit-call score of the fitted dose curve at least 0.9, where 1 is the maximum; inactive means score below 0.9.
Your answer must be one of the following: T (active), F (inactive)

- CC(C)(C)c1ccc(CSc2cnn(C(C)(C)C)c(=O)c2Cl)cc1: T
- Cc1ccc(-c2c(Cl)nc(C#N)n2S(=O)(=O)N(C)C)cc1: F
- COP(=S)(OC)Oc1nc(Cl)c(Cl)cc1Cl: F
- COc1ccc(C(c2ccc(OC)cc2)C(Cl)(Cl)Cl)cc1: F
- N#Cc1nn(-c2c(Cl)cc(C(F)(F)F)cc2Cl)c(N)c1S(=O)C(F)(F)F (stereo not given): F
- CCOc1cc(Oc2ccc(C(F)(F)F)cc2Cl)ccc1[N+](=O)[O-]: T
- COP(N)(=O)SC (stereo not given): F
- C=CC1(C)OC(=O)N(c2cc(Cl)cc(Cl)c2)C1=O (stereo not given): F
- CCCCNC(=O)n1c(NC(=O)OC)nc2ccccc21: F

# input for lookup
query: Just curious, what result did C=CCC1=C(C)C(OC(=O)C2C(C=C(C)C)C2(C)C)CC1=O (stereo not given) get here?
result: F

====

target.system: guinea pig Sigma Receptor, Non-selective Binding, SIGMAR1 (gene 100135589) (UniProt Q60492)
Sequence (Q60492 whole entry, looked up): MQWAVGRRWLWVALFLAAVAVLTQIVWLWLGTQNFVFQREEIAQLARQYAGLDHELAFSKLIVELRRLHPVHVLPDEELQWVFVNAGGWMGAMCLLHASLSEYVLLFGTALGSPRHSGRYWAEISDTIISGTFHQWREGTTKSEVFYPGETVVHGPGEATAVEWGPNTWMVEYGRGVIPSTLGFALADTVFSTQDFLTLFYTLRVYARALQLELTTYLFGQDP
experimental.protocol: NVS_OR_gSIGMA_NonSelective: NovaScreen (NVS) Nuclear Receptor Binding Assay for guinea pig Sigma Receptor, Non-selective Binding (AID 2283367)
The source made the active and inactive calls. The calls were made as follows: active = hit-call score of the fitted dose curve at least 0.9, where 1 is the maximum; inconclusive = response in the unintended direction; inactive = score below 0.9.
Form entry, call: pick from True (active), False (inactive)

- CNC(=S)S: False
- C=CCC1=C(C)[C@@H](OC(=O)[C@@H]2[C@@H](C=C(C)C)C2(C)C)CC1=O: True
- CCCC1COC(Cn2cncn2)(c2ccc(Cl)cc2Cl)O1 (configuration not stated): True
- CCON=C(CC)C1=C(O)CC(c2c(C)cc(C)cc2C)CC1=O (configuration not stated): False

query: Entry N#Cc1nn(-c2c(Cl)cc(C(F)(F)F)cc2Cl)c(N)c1S(=O)C(F)(F)F (configuration not stated) : call = ?
result: False

query: Assay result, entry `CON(C)C(=O)Nc1ccc(Cl)c(Cl)c1` — outcome?
result: True

query: Returns: the outcome recorded for `CCc1nn(C)c(C(=O)NCc2ccc(C(C)(C)C)cc2)c1Cl` in this assay.
result: True

====

experimental.protocol: APR_HepG2_MitoMembPot_72hr: Apredica 72-hour HepG2 Assay for Mitochondrial Membrane Potential (AID 2282917)
conditions: imaging, actives raise or lower the signal
The source made the active and inactive calls. Rule for the calls: active = hit-call score of the fitted dose curve at least 0.9, where 1 is the maximum; inactive = score below 0.9.
recorded.endpoint: outcome

Some solved entries appear below for comparison.
• CCOC(=O)CC(SP(=S)(OC)OC)C(=O)OCC (configuration not stated) = inactive
• O=C(O)COc1nc(Cl)c(Cl)cc1Cl = inactive
• Fc1ccc(Oc2ccnc3cc(Cl)cc(Cl)c23)cc1 = inactive
• C=CCC1=C(C)[C@@H](OC(=O)[C@@H]2[C@@H](C=C(C)C)C2(C)C)CC1=O = inactive
• Cc1ccc(-c2c(Cl)nc(C#N)n2S(=O)(=O)N(C)C)cc1 = inactive

query: Given the compound CCCC1COC(Cn2cncn2)(c2ccc(Cl)cc2Cl)O1 (configuration not stated) , what is its reported outcome?
result: inactive

query: Report outcome for `Cc1cc(Cl)ccc1OCC(=O)O` please.
result: inactive

query: Quick one: outcome of `CC(C)(C)c1ccc(CSc2cnn(C(C)(C)C)c(=O)c2Cl)cc1` ?
result: inactive

query: Entry CCON=C(CC)C1=C(O)CC(c2c(C)cc(C)cc2C)CC1=O (configuration not stated) : reported outcome = ?
result: inactive
